The following compounds are listed with their measured ΦΔ, quantum yield of singlet oxygen production values.
- Assay info: Quantum yield of singlet oxygen production, comparative method with DPBF scavenger
- Assay type: physicochemical
- Condition info: in DMF, ZnPc as reference
Metric: ΦΔ, quantum yield of singlet oxygen production

| Compound | Reported |
| --- | --- |
| COCCOCCOCCOCCOc1ccc(OCCOCCOCCOCCOC)c2c1C1=NC2=Nc2c3ccccc3c3[n]2[Zn][n]2c(c4ccccc4c2=N1)=NC1=NC(=N3)c2ccccc21 | 0.67 |
| NCCc1ccc(Oc2cccc3c2C2=NC3=Nc3c4ccccc4c4[n]3[Zn][n]3c(c5ccccc5c3=N2)=NC2=NC(=N4)c3ccccc32)cc1 [C15Zn] | 0.53 |
| Cc1cc(Cn2cc[n+](C)c2)c(Oc2c3c(c(C)c(C)[n+]2C)C2=NC3=Nc3c4ccccc4c4[n]3[Zn][n]3c(c5ccccc5c3=N2)=NC2=NC(=N4)c3ccccc32)c(Cn2cc[n+](C)c2)c1.[I-].[I-].[I-] | 0.66 |
| C[n+]1cccc(Oc2cc3c(cc2Oc2ccc[n+](C)c2)C2=Nc4c5cc(Oc6ccc[n+](C)c6)c(Oc6ccc[n+](C)c6)cc5c5[n]4[Zn][n]4c(c6cc(Oc7ccc[n+](C)c7)c(Oc7ccc[n+](C)c7)cc6c4=NC4=NC(=N5)c5cc(Oc6ccc[n+](C)c6)c(Oc6ccc[n+](C)c6)cc54)=NC3=N2)c1.[I-].[I-].[I-].[I-].[I-].[I-].[I-].[I-] | 0.02 |
| O=S(=O)([O-])c1ccc(Oc2ccc3c(c2)C2=Cc4c5ccc(Oc6ccc(S(=O)(=O)[O-])c7cccnc67)cc5c5[n]4[Zn][n]4c(c6ccc(Oc7ccc(S(=O)(=O)[O-])c8cccnc78)cc6c4=CC3=N2)=CC2=NC(=C5)c3ccc(Oc4ccc(S(=O)(=O)[O-])c5cccnc45)cc32)c2ncccc12.[Na+].[Na+].[Na+].[Na+] | 0.58 |
| Cc1cc(OCc2cn(CCO[C@@H]3O[C@H](CO)[C@@H](O)[C@H](O)[C@H]3O)nn2)c(Oc2cc3c(cc2Oc2c(OCc4cn(CCO[C@@H]5O[C@H](CO)[C@@H](O)[C@H](O)[C@H]5O)nn4)cc(C)cc2OCc2cn(CCO[C@@H]4O[C@H](CO)[C@@H](O)[C@H](O)[C@H]4O)nn2)C2=Nc4c5ccccc5c5[n]4[Zn][n]4c(c6ccccc6c4=NC3=N2)=NC2=NC(=N5)c3ccccc32)c(OCc2cn(CCO[C@@H]3O[C@H](CO)[C@@H](O)[C@H](O)[C@H]3O)nn2)c1 | 0.59 |
